Tested on: Salmonella typhimurium TA98
assay overview: Ames test (reverse mutation test), TA98
Type: cell-based
measurement setup: S9 Mix -; dose 185 µg/plate
Please assign false whenever Number of revertant colonies TA98 is at or above 20, and true whenever it is below.

molecule="Cc1cccc(-n2nc(N)cc2-c2cccc(OC(F)(F)F)c2)c1 [Metabolite H]" class=false
molecule="Nc1cc(-c2cccc(OCC(F)(F)F)c2)n(-c2ccc(F)cc2)n1 [Metabolite E]" class=true
molecule="Nc1cc(-c2cccc(OC(F)(F)F)c2)n(-c2cccc(F)c2)n1 [Metabolite G]" class=true

Now for another entry.
Determine if CC(C)(OCc1cc(F)cc(-c2cc(N)nn2-c2ccc(F)cc2)c1)C(F)(F)F [Metabolite D] shows Number of revertant colonies TA98 strictly lower than 20. false

---

Tested on: Salmonella typhimurium TA100
assay overview: Ames test (reverse mutation test), TA100
Assay type: cell-based
measurement setup: S9 Mix -; dose 62 µg/plate
Description: The solvent used herein was dimethyl sulfoxide (DMSO, 100 µL/plate). The mixtures were preincubated at 37° C. for 20 minutes while shaking. […] Two plates per treatment were used.
Binary classification by Number of revertant colonies TA100, with 100 as an inclusive lower bound for yes (1); all other cases are no (0).

compound="Cc1cccc(-n2nc(N)cc2-c2cccc(OC(F)(F)F)c2)c1 [Metabolite H]" class="yes (1)"

Record CC(C)(OCc1cc(F)cc(-c2cc(N)nn2-c2ccc(F)cc2)c1)C(F)(F)F [Metabolite D] ; criterion: Number of revertant colonies TA100 no lower than 100. Met? no (0)

Record Nc1cc(-c2cccc(OC(F)(F)F)c2)n(-c2cccc(F)c2)n1 [Metabolite G] ; criterion: Number of revertant colonies TA100 no lower than 100. Met? no (0)

Record Cc1ccc(-n2nc(N)cc2-c2cccc(OCC(F)(F)F)c2)cc1 [Metabolite F] ; criterion: Number of revertant colonies TA100 no lower than 100. Met? yes (1)

---

Tested on: Escherichia coli WP2uvrA
assay overview: Ames test (reverse mutation test), WP2uvrA
Format: cell-based
measurement setup: S9 Mix +; dose 185 µg/plate
Can you tell me Number of revertant colonies WP2uvrA for the items I'm about to list?
Numbers only.

molecule="Nc1cc(-c2cccc(OCC(F)(F)F)c2)n(-c2ccc(F)cc2)n1 [Metabolite E]" observed_result=18
molecule="Cc1cccc(-n2nc(N)cc2-c2cccc(OC(F)(F)F)c2)c1 [Metabolite H]" observed_result=26
molecule="Nc1cc(-c2cccc(OC(F)(F)F)c2)n(-c2cccc(F)c2)n1 [Metabolite G]" observed_result=16

Please give measured Number of revertant colonies WP2uvrA of the following entry: Cc1ccc(-n2nc(N)cc2-c2cccc(OCC(F)(F)F)c2)cc1 [Metabolite F] 20

---

System: Salmonella typhimurium TA100
assay overview: Ames test (reverse mutation test), TA100
Type: cell-based
measurement setup: S9 Mix -; dose 556 µg/plate
Can you tell me Number of revertant colonies TA100 for the items I'm about to list?
Numbers only.

Solved cases (4 shown):
compound="Nc1cc(-c2cccc(OC(F)(F)F)c2)n(-c2cccc(F)c2)n1 [Metabolite G]" observed_result=59
compound="Nc1cc(-c2cccc(OCC(F)(F)F)c2)n(-c2ccc(F)cc2)n1 [Metabolite E]" observed_result=38
compound="Cc1ccc(-n2nc(N)cc2-c2cccc(OCC(F)(F)F)c2)cc1 [Metabolite F]" observed_result=62
compound="CC(C)(OCc1cc(F)cc(-c2cc(N)nn2-c2ccc(F)cc2)c1)C(F)(F)F [Metabolite D]" observed_result=86

The record that follows has no Number of revertant colonies TA100 shown yet.
Please give measured Number of revertant colonies TA100 of the following entry: Cc1cccc(-n2nc(N)cc2-c2cccc(OC(F)(F)F)c2)c1 [Metabolite H] 88
